Source of measurements: the supplement of paper PMC13380429

inhibition of SARS-CoV-2 cytopathic effect values for the compounds below.
Tested on: Vero E6 infected with SARS-CoV-2
Experiment: inhibition of SARS-CoV-2 cytopathic effect; higher = more antiviral protection, active = above 15
Settings: 10000 nM; 48 h
# output: bare number, implied unit %

Lookup: Dear colleague, please send me the reported inhibition of SARS-CoV-2 cytopathic effect for CC(C)=CCC[C@]1(C)C=Cc2c(O)c3c(c(CC=C(C)C)c2O1)O[C@]12C(=C[C@@H]4C[C@H]1C(C)(C)O[C@@]2(C/C=C(/C)C(=O)O)C4=O)C3=O [gambogic-acid] when you can.
Found: -14.3

Lookup: Dear colleague, please send me the reported inhibition of SARS-CoV-2 cytopathic effect for Cc1cc(C(=O)N2Cc3cnn(C)c3Nc3ccccc32)ccc1CNC(=O)N1CCC[C@H]1C(=S)N1CCCN(C)CC1 when you can.
Found: -2.86

Next:
Lookup: Dear colleague, please send me the reported inhibition of SARS-CoV-2 cytopathic effect for Cc1ccc(C(=O)Nc2ccc(S(=O)(=O)O)c3cc(S(=O)(=O)O)cc(S(=O)(=O)O)c23)cc1NC(=O)c1cccc(NC(=O)Nc2cccc(C(=O)Nc3cc(C(=O)Nc4ccc(S(=O)(=O)O)c5cc(S(=O)(=O)O)cc(S(=O)(=O)O)c45)ccc3C)c2)c1 [suramin] when you can.
Found: 1.44

Lookup: Dear colleague, please send me the reported inhibition of SARS-CoV-2 cytopathic effect for COCC1(CO)C(=O)C2CCN1CC2 (configuration not stated) when you can.
Found: 4.84

Lookup: Dear colleague, please send me the reported inhibition of SARS-CoV-2 cytopathic effect for CCN(C(=O)c1c(O)c2c(Cl)cccc2n(C)c1=O)c1ccccc1 [laquinimod] when you can.
Found: -6.25

Lookup: Dear colleague, please send me the reported inhibition of SARS-CoV-2 cytopathic effect for CC(C)NCC(O)c1ccc([N+](=O)[O-])cc1 (configuration not stated) [nifenalol] when you can.
Found: -2.75

Lookup: Dear colleague, please send me the reported inhibition of SARS-CoV-2 cytopathic effect for O=c1cc(N2CCOCC2)oc2c1ccc1ccccc12 when you can.
Found: -1.32
